Every entry's value here was drawn from the Human Domainome abundance scans (Beltran et al. 2025).

B1: Transitional endoplasmic reticulum ATPase, residues 26 to 106; numbered along this chain, P55072 (parent)
chain: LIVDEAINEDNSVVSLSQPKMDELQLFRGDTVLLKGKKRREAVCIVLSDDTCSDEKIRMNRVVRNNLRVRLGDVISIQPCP

- Variants of: B1
- Procedure Text: abundance fitness (aPCA) (normalised: wild type 0, dead -1); higher = more abundant; growth selection in yeast, the domain comes from the species named
- Run Parameters: Homo sapiens
Value Type: abundance fitness
Answer field: number only, no words.

Would you kindly share the measured abundance fitness for `V69M` ?
-0.032

Would you kindly share the measured abundance fitness for `A42S` ?
0.085

Would you kindly share the measured abundance fitness for `D54K` ?
0.08

Would you kindly share the measured abundance fitness for `L67T` ?
-0.693

Would you kindly share the measured abundance fitness for `M21L` ?
0.048

Would you kindly share the measured abundance fitness for `C44M` ?
0.085

Would you kindly share the measured abundance fitness for `S48A` ?
0.065

Would you kindly share the measured abundance fitness for `M21G` ?
-0.894

Would you kindly share the measured abundance fitness for `D49L` ?
-0.904

Would you kindly share the measured abundance fitness for `K35G` ?
-0.088

Would you kindly share the measured abundance fitness for `S53D` ?
0.021

Would you kindly share the measured abundance fitness for `S53M` ?
-0.09

Would you kindly share the measured abundance fitness for `D73F` ?
-0.861

Would you kindly share the measured abundance fitness for `P81N` ?
0.073

Would you kindly share the measured abundance fitness for `M21E` ?
-0.731

Would you kindly share the measured abundance fitness for `G36W` ?
-0.618
